Record form. Attribute: Enzyme Activity Endpoint Assay: scIgG. Fill in for each entry.
- System Name: pooled human IgG (human IgG1, 2, 3 and 4)

Protein	Metric	Endpoint Value
PRT-527 (protein) MANQEIRYSEETPKTITSVWTKGVTPPTDFIKNEDVLHAPYIANQGWYDITKTFNGKDDLLCGAATAGNMLHWWFDQNKEEIENYLKKHPEKQKINFNGEQMFDVKEAIDTKDSQTDSALFEYFKDKAFPNLSTKHLGVMPDLVLDMFINGYYLSLGKHGPTPVKRGTKDPRGGIFDAVFTRGDQSKLLTSRHDFKEKTLNEISDLIKQELTEGKALALSHTYANVRINHVINLWGADFNSEGNLEAIYVTDSDSNASIGMKKYYVGVNSAGKVAISAKEIEGDNIGAQVLGLFTLSTGQDIWEQTNLEHHHHHH	Enzyme Activity Endpoint Assay: scIgG	396 ng/µL

Let us examine a further case.
Need Enzyme Activity Endpoint Assay: scIgG, item PRT-574 (protein) MANQEIRYSEETPKTITSVWTKGVTPPTDFIYNEDVLHAPYIANQGWYDITKTFNGKDDLLCGAATAGNMLHWWFDQNKEQIERYLKKHPEKQKINFNGEQMFDVKEAIDTKDSQTNSKLFEYFKDKAFPYLSTKHLGVFPDHVIDMFINGYRLSLTNHGPTPVKEQTKDPRGGIFDAVFTRGDQSKLLTSRHDFKEKTLNEISDLIKQELTEGKALGLSHTYANVRINHVINLWGADFDAEGNLEAIYVTDSDSNASIGMKKYYVGVNSAGKVAISAKEIEGDNIGAQVLGLFTLSTGKDIWEQTNLEHHHHHH 227 ng/µL
